molecular target: the molecule itself; assay: thioflavin T fluorescence + negative-stain TEM; fibril formation of TIA-1 sPLD from phase-separated condensates, without TC5, physiological buffer, 30 °C, 3 days

{"protein": "human TIA-1 sPLD (residues 320-386) A381T (domain or fragment, UniProt P31483 320-386, looked up, TIA-1, human, short PLD, residues 320-386, with the disease-associated missense mutation A381T) GQYMPNGWQVPAYGMYGQAWNQQGFNQTQSSAPWMGPNYGVQPPQGQNGSMLPNQPSGYRVTGYETQ", "binding result": "binds"}
{"protein": "human TIA-1 sPLD (residues 320-386) P362L (domain or fragment, UniProt P31483 320-386, looked up, TIA-1, human, short PLD, residues 320-386, with the disease-associated missense mutation P362L) GQYMPNGWQVPAYGMYGQAWNQQGFNQTQSSAPWMGPNYGVQLPQGQNGSMLPNQPSGYRVAGYETQ", "binding result": "binds"}
{"protein": "human TIA-1 sPLD (residues 320-386) G343P (domain or fragment, UniProt P31483 320-386, looked up, TIA-1, human, short PLD, residues 320-386, with G343P) GQYMPNGWQVPAYGMYGQAWNQQPFNQTQSSAPWMGPNYGVQPPQGQNGSMLPNQPSGYRVAGYETQ", "binding result": "binds"}
{"protein": "human TIA-1 sPLD (residues 320-386) Q346L (domain or fragment, UniProt P31483 320-386, looked up, TIA-1, human, short PLD, residues 320-386, with Q346L) GQYMPNGWQVPAYGMYGQAWNQQGFNLTQSSAPWMGPNYGVQPPQGQNGSMLPNQPSGYRVAGYETQ", "binding result": "binds"}
{"protein": "human TIA-1 sPLD (residues 320-386) Q348L (domain or fragment, UniProt P31483 320-386, looked up, TIA-1, human, short PLD, residues 320-386, with Q348L) GQYMPNGWQVPAYGMYGQAWNQQGFNQTLSSAPWMGPNYGVQPPQGQNGSMLPNQPSGYRVAGYETQ", "binding result": "binds"}
{"protein": "human TIA-1 sPLD (residues 320-386) W339A (domain or fragment, UniProt P31483 320-386, looked up, TIA-1, human, short PLD, residues 320-386, with W339A) GQYMPNGWQVPAYGMYGQAANQQGFNQTQSSAPWMGPNYGVQPPQGQNGSMLPNQPSGYRVAGYETQ", "binding result": "binds"}
{"protein": "human TIA-1 sPLD (residues 320-386) M354A (domain or fragment, UniProt P31483 320-386, looked up, TIA-1, human, short PLD, residues 320-386, with M354A) GQYMPNGWQVPAYGMYGQAWNQQGFNQTQSSAPWAGPNYGVQPPQGQNGSMLPNQPSGYRVAGYETQ", "binding result": "binds"}
{"protein": "human TIA-1 sPLD (residues 320-386) W353A (domain or fragment, UniProt P31483 320-386, looked up, TIA-1, human, short PLD, residues 320-386, with W353A) GQYMPNGWQVPAYGMYGQAWNQQGFNQTQSSAPAMGPNYGVQPPQGQNGSMLPNQPSGYRVAGYETQ", "binding result": "binds"}
{"protein": "human TIA-1 sPLD (residues 320-386) E384K (domain or fragment, UniProt P31483 320-386, looked up, TIA-1, human, short PLD, residues 320-386, with the disease-associated missense mutation E384K) GQYMPNGWQVPAYGMYGQAWNQQGFNQTQSSAPWMGPNYGVQPPQGQNGSMLPNQPSGYRVAGYKTQ", "binding result": "binds"}

Recorded values, source paper PMC12723238.
